Assay: Solubility of the purified compounds in solvents
Assay type: physicochemical
Conditions: water

# MOLECULE, Solubility in water
rows = [
    ("CC(=O)c1c(C)c(-c2oc3cc(O)c(O)c(C(=O)O)c3c(=O)c2Cc2c(C)oc3c(c2=O)COc2cc(O)c(O)c(C(=O)O)c2-3)cc2c(=O)c3cc(O)c(O)cc3oc12", "Insoluble"),
    ("CC12Cc3oc4cc(O)c(O)c(C(=O)O)c4c(=O)c3C(O1)C1C(=O)C3=C(OC1(C)O2)c1c(cc(O)c(O)c1C(=O)O)OC3 (stereo not drawn)", "Insoluble"),
    ("CC(=O)[C@]12c3c(cc(O)c(O)c3C(=O)O)OC[C@]13Cc1c(oc4cc(O)c(O)c(C(=O)O)c4c1=O)[C@H]2C(C)=C(O)C3=O (relative stereo)", "Insoluble"),
]

The values you see were collected from patent US7642362B2.
